Assay: BET inhibitor-based combinations targeting novel dependencies in MECOM-rearranged (r) AML: OCI-AML3 cell line (AID 2202232);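 also: plate controls were DMSO vehicle wells for no effect and wells without cells for full effect; nearly all actives have a fitted effect of over 35% in size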
Conditions: CellTiter-Glo luminescence, 48 h; OCI-AML3 viability; series mostly up to 46 µM
Experimental: Ecotropic viral insertion site 1 (EVI1) is located on chromosome 3q26.2 as part of the MECOM (MDS and EVI1 complex) locus. […] A collection of 2480 mechanistically annotated dugs (MIPE v5.0) was used to screen four 3q26.2 rearranged AML cell lines and three non-3q26.2 rearranged AML cell lines. […] Cell viability was determined by luminescence based, Cell Titer Glo assay (Promega). […] Luminescence readings were taken using a Viewlux (PerkinElmer) with a 2 s exposure time per plate. […]
Records with an inconclusive call do not appear. Calls of active or inactive are those of the source. Calls follow the shape of the dose curve; as a rule, active = well fitted inhibition curve with a large enough effect; inconclusive = small, poorly fitted or top-dose-only effect; inactive = no such curve, though single readings can be large or run the other way.
Hi! Could you answer with just one of these? class 1 (active), class 0 (inactive)

State the result this test recorded for CO[C@@]12[C@H](COC(N)=O)C3=C(C(=O)C(C)=C(N)C3=O)N1C[C@@H]1N[C@@H]12 . class 0
